TEST SYSTEM: ABCB1 (Homo sapiens, UniProt P08183)
Sequence (P08183 whole entry): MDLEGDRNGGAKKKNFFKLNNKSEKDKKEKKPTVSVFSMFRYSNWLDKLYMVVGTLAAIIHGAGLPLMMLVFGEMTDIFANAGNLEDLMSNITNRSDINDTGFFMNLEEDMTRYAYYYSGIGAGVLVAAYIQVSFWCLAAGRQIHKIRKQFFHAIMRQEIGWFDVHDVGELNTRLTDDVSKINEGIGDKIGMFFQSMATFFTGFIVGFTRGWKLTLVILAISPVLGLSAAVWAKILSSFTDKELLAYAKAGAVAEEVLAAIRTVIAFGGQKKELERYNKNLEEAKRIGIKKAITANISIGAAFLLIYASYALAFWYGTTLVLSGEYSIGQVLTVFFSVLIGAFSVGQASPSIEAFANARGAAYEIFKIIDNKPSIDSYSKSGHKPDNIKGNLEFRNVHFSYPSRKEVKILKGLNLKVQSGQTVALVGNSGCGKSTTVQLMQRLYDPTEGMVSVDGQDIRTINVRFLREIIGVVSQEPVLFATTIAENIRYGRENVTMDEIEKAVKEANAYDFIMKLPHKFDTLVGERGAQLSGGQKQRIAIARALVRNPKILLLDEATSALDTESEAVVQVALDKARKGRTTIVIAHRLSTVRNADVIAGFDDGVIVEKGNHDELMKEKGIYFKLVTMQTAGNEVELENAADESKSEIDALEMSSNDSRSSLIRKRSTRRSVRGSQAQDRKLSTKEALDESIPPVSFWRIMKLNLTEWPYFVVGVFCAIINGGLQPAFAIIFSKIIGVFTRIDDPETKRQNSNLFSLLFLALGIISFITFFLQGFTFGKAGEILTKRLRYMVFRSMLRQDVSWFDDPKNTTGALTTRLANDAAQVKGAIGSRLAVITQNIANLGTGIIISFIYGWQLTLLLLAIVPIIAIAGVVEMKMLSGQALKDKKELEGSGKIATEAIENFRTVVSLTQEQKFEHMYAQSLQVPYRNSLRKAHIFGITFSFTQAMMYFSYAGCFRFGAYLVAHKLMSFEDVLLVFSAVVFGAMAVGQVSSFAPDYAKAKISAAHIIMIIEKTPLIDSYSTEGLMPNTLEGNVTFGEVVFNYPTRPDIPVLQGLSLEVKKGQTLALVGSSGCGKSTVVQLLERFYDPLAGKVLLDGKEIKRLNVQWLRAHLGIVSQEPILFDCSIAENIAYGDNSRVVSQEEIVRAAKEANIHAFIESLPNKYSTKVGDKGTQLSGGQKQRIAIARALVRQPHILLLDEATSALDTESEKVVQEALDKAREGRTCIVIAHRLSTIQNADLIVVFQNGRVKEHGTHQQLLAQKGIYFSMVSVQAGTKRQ
PROCEDURE TEXT: Inhibition of ABCB1 in human A2780/ADR cells assessed as calcein-AM accumulation at 10 uM preincubated for 30 mins followed by calcein-AM addition measured over 60 mins at 60 secs time interval by fluorescence assay relative to cyclosporine A
Assay type: cell-based
EXPERIMENTAL CONTEXT: A2780/ADR cells, probe calcein-AM
ASSAY METRIC: inhibition at 1 h, 10 µM

ITEM SMILES | ASSAY METRIC | READING
COc1ccc(Nc2nc(-c3cccs3)nc3ccccc23)cc1OC | inhibition at 1 h, 10 µM | > 25%
N#Cc1cccc(Nc2nc(-c3ccc[nH]3)nc3ccccc23)c1 | inhibition at 1 h, 10 µM | > 25%

The compound listed as Brc1cccc(Oc2nc(-c3ccccc3)nc3ccccc23)c1 shows inhibition at 1 h, 10 µM equal to < 25%

Reported inhibition at 1 h, 10 µM for N#Cc1cccc(Nc2nc(-c3cccs3)nc3ccccc23)c1 was < 25%
